- assay method text: Pharmacokinetics in mice
- Format: in vivo, BALB/c hairy mice
- condition label: both sexes, BALB/c hairy, mouse, plasma, PO 10 mg/kg, 6.2 h, read-out: Plasma Conc.
observed property: concentration at 6.2 h (ng/mL)
Output spec: scalar in ng/mL, unitless text.

Give concentration at 6.2 h for the following compound: `Cc1cnc(N[C@H]2CC[C@H](N)CC2)nc1-c1cnc2ccc(-c3ccccc3)cn12`
20

###

- assay method text: Caco-2 permeability
- Type: in vitro ADME
- condition label: human, Caco-2; A-B
observed property: Papp A→B (×10⁻⁶ cm/s)
Output spec: scalar in ×10⁻⁶ cm/s, unitless text.

Give Papp A→B for the following compound: `Cc1cnc(N[C@H]2CC[C@H](N)CC2)nc1-c1cnc2ccc(-c3ccccc3)cn12`
6.06

###

- assay method text: Dissociation constant by PH metric assay
- Assay type: physicochemical
- condition label: third of three values
observed property: pKa

Give pKa for the following molecule: `Cc1cnc(N[C@H]2CC[C@H](N)CC2)nc1-c1cnc2ccc(-c3ccccc3)cn12`
9.89

###

- assay method text: Pharmacokinetics in mice
- Format: in vivo, BALB/c hairy mice
- condition label: both sexes, BALB/c hairy, mouse, plasma, IV 2 mg/kg, ± standard error of the estimate, read-out: t½ (converted)
observed property: half-life

Give half-life for the following molecule: Cc1cnc(N[C@H]2CC[C@H](N)CC2)nc1-c1cnc2ccc(-c3ccccc3)cn12 [CDDD11-8]
108 min

###

- assay method text: Drug concentration in plasma and tumor 4 h post final dose
- Type: in vivo, MV4-11 tumor-bearing mice
- condition label: BALB/c nude (nu/nu), mouse, tumor, oral, 125 mg/kg, 125 mg/kg orally 5 days, 4 h post final dose, mouse 3; read-out: Tumor concentration
observed property: concentration at 4 h
Answer format: value, then unit.

Give concentration at 4 h for the following molecule: `Cc1cnc(N[C@H]2CC[C@H](N)CC2)nc1-c1cnc2ccc(-c3ccccc3)cn12`
1850 ng/g

###

- assay method text: Maximum tolerated dose in non-tumor bearing mice
- Assay type: in vivo
- condition label: female, BALB/c nude (nu/nu), mouse, in vivo; oral, once daily for seven days
- Description: In vivo efficacy of CDDD11-8 against AML xenografts in mice. The maximum tolerated dose (MTD) of CDDD11-8 was determined in non-tumor bearing female BALB/c nude (nu/nu) mice (n = 3). […] Our proposed maximum dose of CDDD11-8 was 150 mg/kg once daily for seven days. […] All the animals received 28 doses of vehicle or CDDD11-8 at 75 or 125 mg/kg strength. […] The tumor regression was maintained over the dosing period. […]
observed property: MTD at 7 days (mg/kg)
Output spec: scalar in mg/kg, unitless text.

Give MTD at 7 days for the following molecule: `Cc1cnc(N[C@H]2CC[C@H](N)CC2)nc1-c1cnc2ccc(-c3ccccc3)cn12`
150
